# test target: recombinant SARS-CoV-2 Beta RBD
# procedure summary: BLI
measure name: Kd (nM)
Give the value, in units of nM, as a plain number.

Sample answers from the record:
binder	measure name	result number
ADI-75738 (antibody, V domains shown) VH: QVQLQQWGAGLLKPSETLSLTCGVHDGAFSGYFWNWIRQSPVKGLEWIGEVTHSGNTNYNPSLKSRVTMSVDASKNEFSLNLTSVTAADTAVYYCARGDFYSTRLAFDVWGQGSMVTVSS VL: EIVLTQSPATLSLSPGERATLSCRASQSVSTYLAWYQQRPGQAPRLLIYDASNRATGIPARFSGSGSETDFTLTISSLEPEDFAVYYCQQRSNWLTFGGGTKVEIK	Kd	0.56
ADI-75754 (antibody, V domains shown) VH: QVQLVQSGGDLVQPGGSLRLSCVASGFTFSNYEMNWVRQGPGKGLEWISYISTSGSTYYYADSVKGRFTISRDNARNSLYLQMDSLRVEDTAIYYCLTHPQPQYVRPTQVVWFDPWGQGTLVTVSS VL: EMTMTQSPGTLSLSPGERATLSCRASESVSSEYLAWHQQRPGQAPRLLIYGASSRPTGIPDRFSGSGSGTDFTLTISRLEPEDFAVYYCHQFASAPITFGQGTRLEIK	Kd	1.61
ADI-75859 (antibody, V domains shown) VH: QVQLVQSGGGVGQPGRSLRLSCAASGFTFGHYGMHWVRQAPGKGLEWVAAIIYDGSDKQYADSVKGRFTISRDNSKNTVYLQMNSLRPEDTAIYFCAKLGGLYCSGGNCFSGYFDYWGQGTLVTVSS VL: ETTLTQSPSSLSASVGDRVTITCRASQGISNSLAWYQQKPGKAPKLLLYAASTLESGVPSRFSGSGSGTDFTLTIASLQPEDFATYYCQQYYSSVRFTFGQGTILDLN	Kd	0.89

Okay, now this binder:
Quick one: Kd for ADI-75700 (antibody, V domains shown) VH: QVQLQQWGAGLLKPSETLSLTCGVYDGSFSDYFWNWIRQPPGKGLEWIGELTHTGSTNYNPSLKSRVTILADTSKSQFSLNLSSVTAADTAVYYCARGDFYSTRLAFDLWGQGTTVTVSS VL: EIALTQSPATLSLSPGERATLSCRASQSVSTYLAWYQQKPGQAPRLLIYDASKRATGIPARFNGSGSGTDFTLTISSLEPEDFAVYYCQQRSTWPTFGGGTKVDIK ? 1.23
